Literature survey of Ki (system: UniProtKB P23280).
Sequence (P23280 whole entry): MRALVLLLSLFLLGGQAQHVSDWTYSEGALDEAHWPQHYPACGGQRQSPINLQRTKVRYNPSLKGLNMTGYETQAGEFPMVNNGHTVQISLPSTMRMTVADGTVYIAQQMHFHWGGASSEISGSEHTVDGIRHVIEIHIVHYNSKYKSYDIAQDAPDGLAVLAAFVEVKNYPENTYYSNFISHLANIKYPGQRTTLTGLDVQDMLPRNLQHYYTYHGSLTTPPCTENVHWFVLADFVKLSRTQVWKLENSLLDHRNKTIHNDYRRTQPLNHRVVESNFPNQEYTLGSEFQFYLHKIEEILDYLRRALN
VALUE_TYPE: Ki (µM)

I = COc1ccc(C(=O)c2ccc(OC)c(OC)c2)cc1OC
II = Oc1cccc(O)c1O
Query block: Compare I and II by numeric Ki and name the larger one. Pick one; state its label.
Result block: I

I = CCc1ccc(NS(=O)(=O)c2ccc(C)cc2)cc1
II = Nc1ccc(S(=O)(=O)Nc2ccccn2)cc1
Query block: Compare I and II by numeric Ki and name the larger one. Pick one; state its label.
Result block: I
(I: 26.5 µM, II: 11.7 µM)

P = CCOC1Oc2c(Br)cccc2C(=O)/C1=C\Nc1ccc(S(N)(=O)=O)cc1 (stereo unspecified)
Q = Cc1ccc(S(=O)(=O)Nc2ccccc2C#N)cc1
Query block: Compare P and Q by numeric Ki and name the larger one. Pick one; state its label.
Result block: Q
(Q: 8.43 µM, P: 2.24 µM)
